The measured values listed here are drawn from the RNAGym collection of RNA variant scans (doi:10.7554/elife.80360).

B1: HDV Ribozyme (parent)
chain: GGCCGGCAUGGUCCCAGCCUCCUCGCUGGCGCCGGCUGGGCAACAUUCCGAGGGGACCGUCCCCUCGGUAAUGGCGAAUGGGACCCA

- Variants of: B1
- protocolSummary: self-cleavage, relative activity (ratio to wild type); higher = more cleavage; co-transcriptional
observedProperty: self-cleavage

>  <sequenceChain>
GGCCGGCAUUGUCCCAGCCUCCUCGCUGGCGCCGGCUGGGCAACAUUCCGAGGGGACCGUCGCCUCGGUAAUGGCGAAUGGGACCCA

>  <numericResult>
0.641

$$$$
>  <sequenceChain>
GGCCGGCAUGGUCCCAGCCUCCUCGCUGGCGCCGGCUGGGCAACAUUCCGAGGGGACCGUCCCCUCGGUAAUCGGGAAUGGGACCCA

>  <numericResult>
0.0573

$$$$
>  <sequenceChain>
GGCCGGCAUGGUCCCAGCCUCCUCGCUGGCGCCGGCUGGGCAUCAUUCCGAGGGGACCGUCCCCUCGGUAAUGGAGAAUGGGACCCA

>  <numericResult>
0.0755

$$$$
>  <sequenceChain>
GGCCGGCAUGGUCCCAGCCUCCUCGCUGGCGCCGGCUGGGCAACAUUCCGAUGGGACCGUCCCCUAGGUAAUGGCGAAUGGGACCCA

>  <numericResult>
0.618

$$$$
>  <sequenceChain>
GGCCGGCAUGGUCCCAGCCUCCUCGCUGGCGCCGGCUGGUCAACAUUCCGAGGGGACCGUCCCCUCGGUUAUGGCGAAUGGGACCCA

>  <numericResult>
0.69

$$$$
>  <sequenceChain>
GGCCGACAUGGUCCUAGCCUCCUCGCUGGCGCCGGCUGGGCAACAUUCCGAGGGGACCGUCCCCUCGGUAAUGGCGAAUGGGACCCA

>  <numericResult>
0.431

$$$$
>  <sequenceChain>
GGCCGGCAUGGUCCCAGCCUCCUCGCUGGCGCCGCCUGGGCAACAUUCCAAGGGGACCGUCCCCUCGGUAAUGGCGAAUGGGACCCA

>  <numericResult>
0.0528

$$$$
>  <sequenceChain>
GGGCGGCAUGGUCCCAGCCUCCUCGCUGGCGCCGGCUGGGCAACUUUCCGAGGGGACCGUCCCCUCGGUAAUGGCGAAUGGGACCCA

>  <numericResult>
0.299

$$$$
>  <sequenceChain>
GGCCGGCAUGGUCCCAGCCUCCUCGCUGGCGCCGUCUGGGCAACAUUCCGAGGGGACCGUCCCCUCGGUAAUGGCGAGUGGGACCCA

>  <numericResult>
0.0723

$$$$
>  <sequenceChain>
GGCCGGCAUGGUCCCAGCCUCCUCGCUGGCGCCGGCUGGGCAAGAUUCCGAGGGGCCCGUCCCCUCGGUAAUGGCGAAUGGGACCCA

>  <numericResult>
0.745

$$$$
>  <sequenceChain>
GGCCGGCAUGGUCCCAGCGUCCUCGCUGGCGCCGGCUGGGCAACAUUCCGAGGGGACCGUCCCCUCGGUAAUGGGGAAUGGGACCCA

>  <numericResult>
0.032

$$$$
>  <sequenceChain>
GGCCGGCAUGGUCCCAGCCUCCUCGCUGGCGCCGGCUCGGCAACAUUCCGAGGGGUCCGUCCCCUCGGUAAUGGCGAAUGGGACCCA

>  <numericResult>
0.262

$$$$
>  <sequenceChain>
GGCCGGCAUGGUCCCAGCAUCCUCGCUGGCGCCGGCUGGGCAACAUUCCGAGGGGACCGCCCCCUCGGUAAUGGCGAAUGGGACCCA

>  <numericResult>
0.107

$$$$
>  <sequenceChain>
GGCCGGCAUGGUCCCAGCCUCCUCGCUGGCGCCAGCUGGGCAACAUUCCGAGUGGACCGUCCCCUCGGUAAUGGCGAAUGGGACCCA

>  <numericResult>
0.17

$$$$
>  <sequenceChain>
GGCCGGCAUGGUCCCAGCCUCCUCGCUGGCGCCGUCUGGGCAACACUCCGAGGGGACCGUCCCCUCGGUAAUGGCGAAUGGGACCCA

>  <numericResult>
0.0415

$$$$
>  <sequenceChain>
AGCCGGCAUGGUCCCAGCCUCCUCGCUGGCGCCGGCUGGGCAACAUUCCGAGGGGACCGUCGCCUCGGUAAUGGCGAAUGGGACCCA

>  <numericResult>
0.0519

$$$$
>  <sequenceChain>
GGCCGGCAUGGUCCCAGCCUCCUUGCUGGCGCCGGCUGGGCAACAUUCCGAGGGGACCGUCCCCUCGGAAAUGGCGAAUGGGACCCA

>  <numericResult>
0.617

$$$$
>  <sequenceChain>
GGCAGGUAUGGUCCCAGCCUCCUCGCUGGCGCCGGCUGGGCAACAUUCCGAGGGGACCGUCCCCUCGGUAAUGGCGAAUGGGACCCA

>  <numericResult>
0.0519

$$$$
>  <sequenceChain>
GGCCGGCAUGGUCCCAGCCUCCUCGCUGGCGCCGGCUGGGCAAAAUUCCGAGGGGACCGUUCCCUCGGUAAUGGCGAAUGGGACCCA

>  <numericResult>
0.758

$$$$
>  <sequenceChain>
GGCCGGCAUGGUCCCAGCCUCCUCGCGGGCGCCGGCUGGGCAACAUUCCGAGGGGACCGACCCCUCGGUAAUGGCGAAUGGGACCCA

>  <numericResult>
0.914

$$$$
>  <sequenceChain>
GGCCGGCAUGGCCCCAGCCUCCUCGCUGGCGCCAGCUGGGCAACAUUCCGAGGGGACCGUCCCCUCGGUAAUGGCGAAUGGGACCCA

>  <numericResult>
0.0692

$$$$
>  <sequenceChain>
GGCCGGCAUGGUCCCAGCCUCCUCGCUGGCGCCGACUGGGCAACAUUCCGAGGGGACCGUCCCCUCGGUAAUGACGAAUGGGACCCA

>  <numericResult>
0.157

$$$$
>  <sequenceChain>
GGCCGGCAUGGUCCCAGCCUCUUCGCUGGCGCCGGCUGGGCAACAUUCCGAGGGGACCGUCCCCUCGGUAAUGGCGAAUGGGACCCA

>  <numericResult>
0.736

$$$$
>  <sequenceChain>
GGCCGGCAUGGACCCAGCCUCCUCGCUGGCGCCGGCUGGGCAACAUUCCGAGGAGACCGUCCCCUCGGUAAUGGCGAAUGGGACCCA

>  <numericResult>
0.306

$$$$
>  <sequenceChain>
GGCCGGCAUGGUCCCAGCCUCCUCGCUGGCGCCGGCUGGGCAACAUUCCGAGGGGACCGUCCCCUCGGUACUGGCGAUUGGGACCCA

>  <numericResult>
0.147

$$$$
>  <sequenceChain>
GGCCGGCAUGGUCCCAGCCUCCUCGCUGGCGCCGGCUGGGCAACAUUCCGAGGGGACCGUCCCCUCGGUAAUGCCGAAUGGGACCGA

>  <numericResult>
0.201

$$$$
>  <sequenceChain>
GGCCGGCAUGGUCCCAGCCUCCUCGCUGGCGCCGGUUGGGCAACAUUCCGAGGGGACCGUCUCCUCGGUAAUGGCGAAUGGGACCCA

>  <numericResult>
0.911

$$$$
>  <sequenceChain>
GGCCGGCAUGGUCCCAGCCUCCUCGCUGGCGCCGGCUGGGCAACAUUCCGAGGGGACCGUCCCCUAGGUAAUGGCGAAUGGGAUCCA

>  <numericResult>
0.696

$$$$
>  <sequenceChain>
GGCCGGCAUGGUCCCAGCCUUCUCGCUGGCGCCAGCUGGGCAACAUUCCGAGGGGACCGUCCCCUCGGUAAUGGCGAAUGGGACCCA

>  <numericResult>
0.0225

$$$$
>  <sequenceChain>
GGCCGGCAUGGUCCCAGCCUCCUCGCUGGCGCCGGCUGGGCAACACUCCGAGGUGACCGUCCCCUCGGUAAUGGCGAAUGGGACCCA

>  <numericResult>
0.786

$$$$
>  <sequenceChain>
GGCCGGCAUGGUCCCAGCCUCCUCGCUGCCGCCGGCUGGGCAACAUUCCGAGGGGACAGUCCCCUCGGUAAUGGCGAAUGGGACCCA

>  <numericResult>
0.0755

$$$$
>  <sequenceChain>
GGCCGGCAUGGACCCAGCCUCCUCGCUGGCGCCGGCUGGGCAACAUUCCGAGGGGACCGUCCCCUCGGUAAUGGCGAAUGGGAUCCA

>  <numericResult>
0.519

$$$$
>  <sequenceChain>
GGCCGGCAUGGUCCCAGCCUCCUCGCUGGCGCCGGCUGGGCAACAUUCCGAGGGGACCGUCCCCUCGGUAAUGGCGACUGGAACCCA

>  <numericResult>
0.106

$$$$
>  <sequenceChain>
GGCCGGCAUGGACCCAGCCUCCUCGCUGGCGCCGGCUGGGCAAGAUUCCGAGGGGACCGUCCCCUCGGUAAUGGCGAAUGGGACCCA

>  <numericResult>
0.166

$$$$
>  <sequenceChain>
GGCCGGCAUGGUCCCAGCCUCCUCUCUGGCGCCGGAUGGGCAACAUUCCGAGGGGACCGUCCCCUCGGUAAUGGCGAAUGGGACCCA

>  <numericResult>
0.106

$$$$
>  <sequenceChain>
GGCCGGCAUGGUCCCAGCCACCUCGCUGGCGCCGGCUGGGCAACAUUCCGAGGGGACAGUCCCCUCGGUAAUGGCGAAUGGGACCCA

>  <numericResult>
0.0615

$$$$
>  <sequenceChain>
GGCCGGCAUGGUCCCAGCCUCCUCUCUGGCGCCGGCUGGGCAACAGUCCGAGGGGACCGUCCCCUCGGUAAUGGCGAAUGGGACCCA

>  <numericResult>
0.199

$$$$
>  <sequenceChain>
GGCCGGCAUGGUCCCAGCCUCCUCGCUGGCGCCGGCUGGCCAACAUUCCGAGUGGACCGUCCCCUCGGUAAUGGCGAAUGGGACCCA

>  <numericResult>
0.337

$$$$
>  <sequenceChain>
GGCCGGCAUGGUCCCAGUCUCCUGGCUGGCGCCGGCUGGGCAACAUUCCGAGGGGACCGUCCCCUCGGUAAUGGCGAAUGGGACCCA

>  <numericResult>
0.0665

$$$$
>  <sequenceChain>
GGCCGGCAUGGUCCCAGCCUCCUAGCUGGCGCCGGCUGGGCAACAUUCCGAGGGGACCGUCCCCUCGGUAAUGGCGAAUGGGACUCA

>  <numericResult>
0.594

$$$$
>  <sequenceChain>
GGCCGGCAUGGACCCAGCCUCCUCGCUGGCGCCGGCUGGGCAACAUUCCGAGGGGACCGUCCCCUCGGUAAUGGCCAAUGGGACCCA

>  <numericResult>
0.443

$$$$
>  <sequenceChain>
GGCCGGCAUGGUCCCAGCCUCCUCGCUGGCGCCGGCUGGGCAACAUUCCGAGGGGACCGUCCCCUCGGUAAUGGGGAAGGGGACCCA

>  <numericResult>
0.0791

$$$$
>  <sequenceChain>
GGCCGGCAUGGUCCCGGCCUCCUCCCUGGCGCCGGCUGGGCAACAUUCCGAGGGGACCGUCCCCUCGGUAAUGGCGAAUGGGACCCA

>  <numericResult>
0.166

$$$$
>  <sequenceChain>
GGCCGGCAUGGUCCAAGCCUCCUCGCUGGCGCCGGCUGGGCAACAUUCCGAGGGGACCGUCCACUCGGUAAUGGCGAAUGGGACCCA

>  <numericResult>
0.403

$$$$
>  <sequenceChain>
GGCCGGCAUGGUCCCAGCCUCCUCGCUGGCGCCGGCUGGCCAACAUUCCGAGGGGACCGUCCCGUCGGUAAUGGCGAAUGGGACCCA

>  <numericResult>
0.242

$$$$
>  <sequenceChain>
GGCCGGCAUGGUCCCAGCCUCCUCGCUGGCGCCGGCUGGGCAACAUUACGAGGGGACCGUCCCCUCGGUAGUGGCGAAUGGGACCCA

>  <numericResult>
0.791

$$$$
